Recorded IC50 values for a group of compounds are listed next.
# Experimental target: Flt3 (h) (Homo sapiens)
# Sequence (P36888 27-993): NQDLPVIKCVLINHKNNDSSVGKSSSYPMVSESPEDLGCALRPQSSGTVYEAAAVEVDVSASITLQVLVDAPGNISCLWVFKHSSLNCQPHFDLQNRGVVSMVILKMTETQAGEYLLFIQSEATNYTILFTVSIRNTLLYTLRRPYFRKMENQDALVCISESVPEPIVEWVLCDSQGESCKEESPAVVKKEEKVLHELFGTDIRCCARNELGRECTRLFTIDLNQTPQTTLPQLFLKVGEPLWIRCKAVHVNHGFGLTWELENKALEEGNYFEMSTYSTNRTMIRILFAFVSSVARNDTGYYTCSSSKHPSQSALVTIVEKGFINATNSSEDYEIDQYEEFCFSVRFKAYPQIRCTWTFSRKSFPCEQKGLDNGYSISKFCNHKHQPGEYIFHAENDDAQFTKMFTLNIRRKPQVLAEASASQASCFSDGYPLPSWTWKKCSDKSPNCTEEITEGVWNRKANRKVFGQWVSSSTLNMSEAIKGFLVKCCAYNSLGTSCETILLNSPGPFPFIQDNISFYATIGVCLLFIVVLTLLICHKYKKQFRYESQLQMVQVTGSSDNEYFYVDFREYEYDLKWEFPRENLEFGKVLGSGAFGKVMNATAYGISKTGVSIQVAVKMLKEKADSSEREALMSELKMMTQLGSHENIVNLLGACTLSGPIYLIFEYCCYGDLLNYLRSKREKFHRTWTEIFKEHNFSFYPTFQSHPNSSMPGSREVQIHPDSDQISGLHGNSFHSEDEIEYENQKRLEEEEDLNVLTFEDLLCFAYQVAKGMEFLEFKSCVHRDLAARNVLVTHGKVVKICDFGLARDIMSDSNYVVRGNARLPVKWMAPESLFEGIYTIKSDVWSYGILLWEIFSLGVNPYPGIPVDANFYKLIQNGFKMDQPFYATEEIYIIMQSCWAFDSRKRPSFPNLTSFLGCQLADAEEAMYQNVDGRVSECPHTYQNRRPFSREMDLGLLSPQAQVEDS

c1cc2cc(c1)-c1cnn3ccc(nc13)OCCN(CCCN1CCCC1)CCO2 : > 1000 nM
c1cc2cc(c1)-c1cnn3ccc(nc13)NCCN(CCN1CCOCC1)CCO2 : < 100 nM
O=C(O)c1ccc2cc1OCCOCCNc1ccn3ncc-2c3n1 : < 100 nM
CN1CCC(C(=O)N2CCOCCNc3ccn4ncc(c4n3)-c3cccc2c3)CC1 : > 1000 nM
CN(C)CCNC(=O)N1CCNCCOc2cccc(c2)-c2cnn3ccc1nc23 : 100 to 1000 nM

[ask] Look up IC50 of `OCc1ccc2cc1OCCOCCNc1ccn3ncc-2c3n1` and report it.
[reply] < 100 nM

[ask] Look up IC50 of `O=C1NCCNCCN(CCO)c2ccn3ncc(c3n2)-c2cccc1c2` and report it.
[reply] > 1000 nM

[ask] Look up IC50 of `O=C1NCCN(CCO)CCNc2ccn3ncc(c3n2)-c2cccc1c2` and report it.
[reply] < 100 nM
